# LD50 per record follows
# Experiment Notes: acute toxicity, single oral administration to mice
# Condition Context: mouse, in vivo
Readout Name: LD50

[[record]]
smiles_record = "CN(C)CCCn1c2ccccc2c(=NN=C2NCCS2)c2ccccc21"
readout_name = "LD50"
obs_value = "125 to 250 mg/kg"

[[record]]
smiles_record = "CN(C)CCn1c2ccccc2c(=NN=C2NCCS2)c2ccccc21"
readout_name = "LD50"
obs_value = "250 to 500 mg/kg"

[[record]]
smiles_record = "CCN(CC)CCn1c2ccccc2c(=NN=C2NCCS2)c2ccccc21"
readout_name = "LD50"
obs_value = "312 to 625 mg/kg"


----------
# Experiment Notes: acute toxicity, single oral administration to mice
# Condition Context: mouse, in vivo
Where a name gives a salt, the structure may show the parent alone.
Readout Name: LD50

[[record]]
compound = "Cl.Cl.NCCn1c2ccccc2c(=NNc2nccs2)c2ccccc21"
readout_name = "LD50"
obs_value = "156 to 312 mg/kg"

[[record]]
compound = "CN(C)CCn1c2ccccc2c(=NNc2nccs2)c2ccccc21.Cl.Cl"
readout_name = "LD50"
obs_value = "312 to 625 mg/kg"

[[record]]
compound = "CCN(CC)CCn1c2ccccc2c(=NNc2nccs2)c2ccccc21.Cl.Cl"
readout_name = "LD50"
obs_value = "> 5000 mg/kg"

[[record]]
compound = "c1ccc2c(c1)c(=NNc1nccs1)c1ccccc1n2CCN1CCCCC1 [HCl]"
readout_name = "LD50"
obs_value = "312 to 625 mg/kg"

[[record]]
compound = "CN1CCN(CCn2c3ccccc3c(=NNc3nccs3)c3ccccc32)CC1 [HCl]"
readout_name = "LD50"
obs_value = "625 to 1250 mg/kg"

[[record]]
compound = "c1ccc2c(c1)c(=NN=C1NCCS1)c1ccccc1n2CCN1CCCC1"
readout_name = "LD50"
obs_value = "156 to 312 mg/kg"

[[record]]
compound = "CC(=O)N1CCN(CCn2c3ccccc3c(=NN=C3NCCS3)c3ccccc32)CC1"
readout_name = "LD50"
obs_value = "1250 to 2500 mg/kg"

[[record]]
compound = "CC(=O)N1CCN(CCn2c3ccccc3c(=NNc3nccs3)c3ccccc32)CC1.Cl.Cl"
readout_name = "LD50"
obs_value = "312 to 625 mg/kg"

[[record]]
compound = "CN1CCN(CCn2c3ccccc3c(=NN=C3NCCS3)c3ccccc32)CC1"
readout_name = "LD50"
obs_value = "156 to 312 mg/kg"

[[record]]
compound = "CN(C)CCCn1c2ccccc2c(=NNc2nccs2)c2ccccc21.Cl.Cl"
readout_name = "LD50"
obs_value = "312 to 625 mg/kg"

